target: hCMV gH + gL + UL128 + UL130 + UL131A (co-expressed in HEK293T cells) (human cytomegalovirus), P12824; assay: competitor: 4I22-biotin; cell staining; conditions: remark: other sources report otherwise
Experimental readout: Inhibition of binding (%)

Just so you know, measured Inhibition of binding (%) for 15D8 (antibody, V domains shown) VH: EVQLVQSGAEVKKPGESLKISCQASGYSFTNYWIAWVRQMPGKGLEWMGIIYPGDSDIKYSPSFRGQVTISADKSISNAFLQWRSLRASDTAMYYCARHAIRGDGFDYWGQGTLVTVSS VL: SYELTQPPSVSVSPGQTATITCSGDKLGEKYACWYQQKPGQSPVLVMYQDTKRPSGIPERFSGSNSGNTATLTISGTRAMDEADYYCQAWDTNTVIFGGGTKLTVL came out at 0%

According to the records, this binder 8C15 (antibody, V domains shown) VH: QVQLQESGPGLVKPSETLSLTCTVSGGSIRSYYWSWIRQPPGKGLEWIGHIYYSGNTNYSPSLQSRVTISLDTPKNQFSLRLSSVTAADTAVYYCARHDVIVVRGVFDVWGQGTVVTVSS VL: QSALTQPASVSGSPGQSITISCTGTSSDIGTYNLVSWYQQHPGKAPKVLIYDGSKRPSGVSSRFSASKSGNTASLTISGLQAEDETDYYCCSYAGTSDFFVVFGGGTKLTVL displays Inhibition of binding (%) of 0%

// recorded Inhibition of binding (%) for 4I22 (antibody, V domains shown) VH: QVQLVESGGGVVQPGRSLRLSCVASGFTFSSYAMHWVRQAPGKGLEWVAVISYDGDNKFYADSVKGRFRISRDTSKNTLYLEMNSLRAADTAIYYCAREELVGLMPPYYNYGLDVWGQGTTVTVSS VL: QSVLTQPPSVSAAPGQKVTISCSGSNSNIGNNYVSWYQQLPGRAPKLLIYDNDHRPSGIPDRFSGSKSGTSATLVITGLQTGDEADYYCETWDTSLSAAVVFGGGTKLTVL : 100%

2C12 (antibody, V domains shown) VH: QITLRESGPTLVKPTQTLTLTCTFSGFSLNTNGVGVGWIRQPPGKALEWLALIYWNGNEGYSPSLKSRLTITKDTSKNQVVLTMTNMDPVDTATYYCVHWPQGLTTVTRLAFDIWGQGTMVTVSS VL: QSALTQPRSVSGSPGQSVTISCTGTTSDVGRYNFVSWYQQHPGKAPKLLMYDVSQRPSGVPSRFSGSKSGNTASLTISGLQAEDEAVFYCCSYAGGNFFSYVFGTGTKVTVL yielded Inhibition of binding (%) of 0%
